- Test system: CAKI-1
- PROTOCOL_TEXT: NCI-60 antiproliferative screen (SRB)
- Assay type: cell-based, human
- MEASUREMENT_SETUP: Homo sapiens; 10 µM single dose, 48 h; CAKI-1 (Renal); read-out: Growth inhibition (%)
Consider the reported inhibition at 10 µM of an entry and match it to a band in low = under 30%, mid = from 30% up to 50%, high = 50% and over

- O=C1Nc2ccc(Cl)cc2C1=Cc1ccc(OCc2ccncc2)cc1 (mixture of isomers): mid
- O=C1Nc2ccccc2C1=Cc1ccc(OCc2ccncc2)cc1 (mixture of isomers): mid
- O=C1Nc2ccc(F)cc2C1=Cc1ccc(OCc2cccnc2)cc1 (mixture of isomers): high
- O=C1Nc2cc(Cl)ccc2C1=Cc1ccc(OCc2ccccc2)cc1 (mixture of isomers): low
- O=C1Nc2ccc(F)cc2C1=Cc1ccc(OCc2ccccn2)cc1 (mixture of isomers): mid
- O=C1Nc2cc(Cl)ccc2C1=Cc1ccc(OCc2cccnc2)cc1 (mixture of isomers): high
- O=C1Nc2ccc(F)cc2C1=Cc1ccc(OCc2ccncc2)cc1 (mixture of isomers): high
- O=C1Nc2cc(Cl)ccc2C1=Cc1ccc(OCc2ccccn2)cc1 (mixture of isomers): low
- O=C1Nc2ccc(Cl)cc2C1=Cc1ccc(OCc2ccccn2)cc1 (mixture of isomers): mid
- O=C1Nc2ccccc2C1=Cc1ccc(OCc2cccnc2)cc1 (mixture of isomers): high
- O=C1Nc2ccc(Cl)cc2C1=Cc1ccc(OCc2ccccc2)cc1 (mixture of isomers): low
- O=C1Nc2ccc(F)cc2C1=Cc1ccc(OCc2ccccc2)cc1 (mixture of isomers): low
- O=C1Nc2ccccc2C1=Cc1ccc(OCc2ccccc2)cc1 (mixture of isomers): low
- O=C1Nc2ccccc2C1=Cc1ccc(OCc2ccccn2)cc1 (mixture of isomers): mid
- O=C1Nc2cc(Cl)ccc2C1=Cc1ccc(OCc2ccncc2)cc1 (mixture of isomers): high

====

- System: SF-268
- PROTOCOL_TEXT: NCI-60 antiproliferative screen (SRB)
- Format: cell-based, human
- MEASUREMENT_SETUP: Homo sapiens; 10 µM single dose, 48 h; SF-268 (CNS); read-out: Growth inhibition (%)
ENDPOINT_NAME: inhibition at 10 µM (%)

* O=C1Nc2ccc(F)cc2C1=Cc1ccc(OCc2ccccn2)cc1 (mixture of isomers) [Compound 5f] | 29.9
* O=C1Nc2ccc(Cl)cc2C1=Cc1ccc(OCc2ccccn2)cc1 (mixture of isomers) [Compound 5g] | 20.7
* O=C1Nc2cc(Cl)ccc2C1=Cc1ccc(OCc2cccnc2)cc1 (mixture of isomers) [Compound 5l] | 45.4
* O=C1Nc2ccccc2C1=Cc1ccc(OCc2cccnc2)cc1 (mixture of isomers) [Compound 5i] | -19.6
* O=C1Nc2cc(Cl)ccc2C1=Cc1ccc(OCc2ccncc2)cc1 (mixture of isomers) [Compound 5p] | 16.7
* O=C1Nc2ccc(Cl)cc2C1=Cc1ccc(OCc2ccncc2)cc1 (mixture of isomers) [Compound 5o] | 55.7
* O=C1Nc2ccccc2C1=Cc1ccc(OCc2ccncc2)cc1 (mixture of isomers) [Compound 5m] | 22.7
* O=C1Nc2ccc(F)cc2C1=Cc1ccc(OCc2cccnc2)cc1 (mixture of isomers) [Compound 5j] | 11.1

====

Quick list: inhibition at 10 µM per entry.
- System: TK-10
- PROTOCOL_TEXT: NCI-60 antiproliferative screen (SRB)
- Assay type: cell-based, human
- MEASUREMENT_SETUP: Homo sapiens; 10 µM single dose, 48 h; TK-10 (Renal); read-out: Growth inhibition (%)
ENDPOINT_NAME: inhibition at 10 µM

• O=C1Nc2ccccc2C1=Cc1ccc(OCc2ccccc2)cc1 (mixture of isomers) [Compound 5a] = -8.25%
• O=C1Nc2ccccc2C1=Cc1ccc(OCc2ccncc2)cc1 (mixture of isomers) [Compound 5m] = 17.9%
• O=C1Nc2cc(Cl)ccc2C1=Cc1ccc(OCc2ccccc2)cc1 (mixture of isomers) [Compound 5d] = -54%
• O=C1Nc2ccc(F)cc2C1=Cc1ccc(OCc2ccccn2)cc1 (mixture of isomers) [Compound 5f] = 4.47%
• O=C1Nc2ccccc2C1=Cc1ccc(OCc2cccnc2)cc1 (mixture of isomers) [Compound 5i] = -15.7%
• O=C1Nc2ccc(F)cc2C1=Cc1ccc(OCc2ccncc2)cc1 (mixture of isomers) [Compound 5n] = 29.9%
• O=C1Nc2cc(Cl)ccc2C1=Cc1ccc(OCc2ccccn2)cc1 (mixture of isomers) [Compound 5h] = -0.24%
• O=C1Nc2ccc(Cl)cc2C1=Cc1ccc(OCc2ccccn2)cc1 (mixture of isomers) [Compound 5g] = 9.89%
